The reported measurements were obtained from patent US20200102347A1.

What log10 Kd was measured for each of the following?
- target_under_test: T1, NativeRPtag(large)_with_Tags_and_Cys (Thermoanaerobacter tengcongensis)
- T1 construct: Unlabeled in anisotropy assays; coupled through the engineered N-terminal Cys to SulfoLink agarose or maleimide plates in column, pull-down and ELISA assays
- T1 chain: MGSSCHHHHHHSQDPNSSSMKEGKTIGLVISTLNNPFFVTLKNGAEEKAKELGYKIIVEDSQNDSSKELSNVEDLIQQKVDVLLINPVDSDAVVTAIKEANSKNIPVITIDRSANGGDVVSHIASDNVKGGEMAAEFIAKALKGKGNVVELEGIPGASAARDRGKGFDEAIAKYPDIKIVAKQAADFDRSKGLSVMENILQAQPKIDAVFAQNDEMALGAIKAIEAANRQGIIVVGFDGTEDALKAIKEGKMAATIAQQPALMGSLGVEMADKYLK
- assay_protocol: fluorescence anisotropy
No end group written: not given here. *: point of attachment. RhodamineB = CCN(CC)c1ccc2c(-c3ccccc3C(=O)*)c3ccc(=[N+](CC)CC)cc-3oc2c1
Kindly note that the scale is log10 and the underlying Kd is in µM.

- binder: "RhodamineB-GEKIPNFIPAELKL [RPtag(small) Cd7]"
  experimental_result: 1.48
- binder: "RhodamineB-GEKAPNFIPAELKLITKENVQ [RPtag(small) i4a]"
  experimental_result: -3.59
- binder: "RhodamineB-ELKLIT [RPtag(small) Nd10, Cd5]"
  experimental_result: -0.60
- binder: "RhodamineB-GEKIPNFIPAELKLI [RPtag(small) Cd6]"
  experimental_result: -0.70
- binder: "RhodamineB-GEKIPNFIPAELKLITKENAQ (built here from the native peptide with the stated change) [RPtag(small) v20a]"
  experimental_result: -3.74

// each listed binder needs a value for log10 Kd
1. RhodamineB-GEKIPNFIPAELKLITKEN [RPtag(small) Cd2]
2. RhodamineB-PAELKLITKA [RPtag(small) Nd8, Cd3, e18a]

-2.96
-1.89
